- Test system: Klebsiella pneumonia
- Protocol summary: MIC against Gram-negative bacteria: Klebsiella pneumonia
- Assay type: cell-based
- Details: 96-well plate, 5×10^5 CFU/mL, 37° C., 10 h
Quantity measured: MIC against K. pneumonia (µg/mL)
Use µg/mL as the unit, but write only the number.

Indicate its recorded MIC against K. pneumonia; the substance in question is PRT498 (CDCNPHGSVHGDCDRTSGQCVCRLGASGLRCDECEPRHILMETDCVS; listed as Homo sapiens)
12.5

Identify measured MIC against K. pneumonia corresponding to PRT533 (GTINSNLGYCQCKLHVEGPTCSRCKLLYWNLDKENPSGCSE; listed as Homo sapiens)
25

Give MIC against K. pneumonia for the following substance: PRT562 (CQCHNNIDTTDPEACDKETGRCLKCLYHTEGEHCQFCRFGYYGDALQQDCRK; listed as Homo sapiens)
25

Using the record for PRT461 (DVDECAWDAHLCREGQRCVNLLGSYRCLPDCGPGFRVADGAGCE; listed as Homo sapiens) , state its measured MIC against K. pneumonia.
12.5

Let me know recorded MIC against K. pneumonia for PRT459 (RTAKCEPACRHGGVCVRPNKCLCKKGYLGPQCE; listed as Homo sapiens) , thanks.
50

Give me measured MIC against K. pneumonia, please, for this substance: PRT554 (CNCESDFTDGTCEDLTGRCYCRPNFSGERCDVCAEGFTGFPSCYPT; listed as Homo sapiens)
50

Give the reported value of MIC against K. pneumonia for this record: PRT509 (CNCSTVGSLDFQCNVNTGQCNCHPKFSGAKCTECSRGHWNYPRCNL; listed as Homo sapiens)
25

Given PRT590 (CDCNILGSRRDMPCDEESGRCLCLPNVVGPKCDQCAPYHWKLASGQGCEP; listed as Homo sapiens) , respond with its MIC against K. pneumonia.
25

Determine its reported MIC against K. pneumonia: PRT470 (KCPQPCRNGGKCIGKSKCKCSKGYQGDLCS; listed as Homo sapiens)
12.5
